assay: Blood plasma pharmacokinetics of midazolam for three administration systems (Example #1); settings: both, human, plasma, inhaled or intranasal, 3.4 mg
Endpoint Label: AUC(0-inf) (ng·h/mL)
Numbers only; they are read as ng·h/mL.

Return the recorded AUC(0-inf) value; entry: Cc1ncc2n1-c1ccc(Cl)cc1C(c1ccccc1F)=NC2 [midazolam]
87.8

----------
assay: Blood plasma pharmacokinetics of midazolam for three administration systems (Example #1); details: both, human, plasma, inhaled or intranasal, 3.4 mg, T1/2, conventional nasal spray administration system, mean
Endpoint Label: half-life (h)
Respond with the bare value in h.

Input Cc1ncc2n1-c1ccc(Cl)cc1C(c1ccccc1F)=NC2 [midazolam] , output reported half-life.
1.9

----------
test: Blood plasma pharmacokinetics of midazolam for three administration systems (Example #1); details: both, human, plasma, iv, 3.4 mg, Tmax, intravenous administration system, mean
Endpoint Label: Tmax
Please state the value followed by its unit.

Output measured Tmax for this item: Cc1ncc2n1-c1ccc(Cl)cc1C(c1ccccc1F)=NC2
2.5 min

----------
assay: Blood plasma pharmacokinetics of midazolam for three administration systems (Example #1); conditions: both, human, plasma, inhaled or intranasal, 3.4 mg, Cmax, bi-directional nasal administration system, mean
Endpoint Label: Cmax

Answer with the recorded Cmax for the molecule listed here: Cc1ncc2n1-c1ccc(Cl)cc1C(c1ccccc1F)=NC2 [midazolam]
44 ng/mL

The values you see were collected from patent US10478574B2.
